Task for the reader: assign each of the following molecules its reported IC50.
# test.target: recombinant human PDK4 (Homo sapiens, UniProt Q16654)
# Sequence (Q16654 whole entry): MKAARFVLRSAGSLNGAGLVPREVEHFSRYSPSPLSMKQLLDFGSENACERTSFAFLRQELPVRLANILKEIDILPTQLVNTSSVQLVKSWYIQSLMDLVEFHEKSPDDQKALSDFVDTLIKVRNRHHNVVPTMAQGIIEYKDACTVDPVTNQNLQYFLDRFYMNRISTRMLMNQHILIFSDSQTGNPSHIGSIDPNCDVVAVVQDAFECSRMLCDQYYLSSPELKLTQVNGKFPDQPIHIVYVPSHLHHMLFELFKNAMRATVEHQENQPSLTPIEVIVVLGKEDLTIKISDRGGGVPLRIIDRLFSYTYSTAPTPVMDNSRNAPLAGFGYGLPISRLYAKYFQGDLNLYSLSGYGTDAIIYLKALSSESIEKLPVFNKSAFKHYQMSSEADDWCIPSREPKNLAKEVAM
# assay.comment: PDK4 enzyme inhibitory activity by off-chip mobility shift assay
# Type: biochemical
# condition.info: Table 35; recombinant human PDK4, room temperature, 5 hours; read-out: IC50
API: value field is a number in µM; no unit string.

Q: So what's the measured IC50 for this one? CCOC(=O)c1ccc2c(c1)C(=O)C=C(C)C2=O [KIS127]
Ans: 26

Q: Follow-up item: CC1=CC(=O)c2ccncc2C1=O [KIS118]
Ans: 16

Q: Follow-up item: CC1=C(Br)C(=O)c2ccccc2C1=O [KIS147]
Ans: 26

----------
Task for the reader: assign each of the following compounds its reported pIC50.
# test.target: recombinant human PDK4 (Homo sapiens, UniProt Q16654)
# assay.comment: PDK4 enzyme inhibitory activity by off-chip mobility shift assay
# Type: biochemical
# condition.info: Table 34; recombinant human PDK4, room temperature, 5 hours; read-out: IC50, PDK inhibitory activity of representative compounds
For clarity, pIC50 is expressed as the negative log10 of concentration in mol/L.

Q: So what's the measured pIC50 for this one? CC1=CC(=O)c2c(O)cc(C(=O)O)cc2C1=O
Ans: 4.70

Q: Follow-up item: CC1=CC(=O)c2cc(C(=O)NCC(=O)O)ccc2C1=O
Ans: 4.68

Q: Follow-up item: CC1=CC(=O)c2cc(C(=O)O)ccc2C1=O
Ans: 4.44

Q: Follow-up item: CC1=CC(=O)c2cc(C(=O)NCC(=O)OC(C)(C)C)ccc2C1=O
Ans: 4.64

Q: Follow-up item: CC1=CC(=O)c2ccccc2C1=O
Ans: 4.42

Q: Follow-up item: CC1=CC(=O)c2cc(C=O)ccc2C1=O
Ans: 4.74

Q: Follow-up item: COC1=CC(=O)c2ccccc2C1=O
Ans: 4.59

Q: Follow-up item: CC1=CC(=O)c2cc(CO)ccc2C1=O
Ans: 4.52

Q: Follow-up item: Cc1cc(N)c2ccccc2c1O
Ans: 4.57

Q: Follow-up item: COC(=O)c1cc(O)c2c(c1)C(=O)C(C)=CC2=O
Ans: 5.05

Q: Follow-up item: CC1=CC(=O)c2ccc(C(=O)O)cc2C1=O
Ans: 4.34

Q: Follow-up item: O=C1CCC(=O)c2c(O)ccc(O)c21
Ans: 4.92

Q: Follow-up item: O=C(O)c1ccc2c(c1)C(=O)C=CC2=O
Ans: 4.72

Q: Follow-up item: COC(=O)c1ccc2c(c1)C(=O)C=C(C)C2=O
Ans: 4.59

Q: Follow-up item: CC1=CC(=O)c2cc(C(C)O)ccc2C1=O (racemic)
Ans: 4.34

----------
Task for the reader: assign each of the following compounds its reported IC50.
# test.target: recombinant human PDK4 (Homo sapiens, UniProt Q16654)
# assay.comment: PDK4 enzyme inhibitory activity by off-chip mobility shift assay
# Assay type: biochemical
# condition.info: Table 35; recombinant human PDK4, room temperature, 5 hours; read-out: IC50
API: value field is a number in µM; no unit string.

Q: So what's the measured IC50 for this one? C#CCNC(=O)c1ccc2c(c1)C(=O)C=C(C)C2=O
Ans: 36

Q: Follow-up item: CC(=O)OCc1ccc2c(c1)C(=O)C=C(C)C2=O
Ans: 19

Q: Follow-up item: CC1=CC(=O)c2ccc(CO)cc2C1=O
Ans: 27

Q: Follow-up item: CC1=CC(=O)c2ccc(C=O)cc2C1=O
Ans: 22

Q: Follow-up item: CC1=CC(=O)c2cc(C(=O)N[C@@H](CO)C(=O)O)ccc2C1=O
Ans: 20

Q: Follow-up item: CC1=CC(=O)c2cc(C=CC(=O)NCC(=O)O)ccc2C1=O
Ans: 17

Origin of values: patent US20150344404A1
